test: Linezolid concentration in blood plasma of beagle dogs after rectal administration of one suppository; format: in vivo; conditions: dog, other: rectal, 600 mg, Example 5 particulate dispersion suppository, 600 mg linezolid, Dog 1 (15.0 kg), 0.75 h
Outcome Measure: concentration at 0.75 h (ng/mL)
Your answer is read as ng/mL, so omit the unit and give the number.

concentration at 0.75 h for CC(=O)NC[C@H]1CN(c2ccc(N3CCOCC3)c(F)c2)C(=O)O1 [Linezolid] is 3840

----------
experiment: Linezolid concentration in blood plasma of beagle dogs after rectal administration of one suppository; assay type: in vivo; details: dog, other: rectal, 600 mg, Example 5 particulate dispersion suppository, 600 mg linezolid, Dog 2 (13.4 g), 1.5 h
Outcome Measure: concentration at 1.5 h (ng/mL)
Answer in ng/mL, number only, no unit symbol.

Entry CC(=O)NC[C@H]1CN(c2ccc(N3CCOCC3)c(F)c2)C(=O)O1 , concentration at 1.5 h reported as 3490
